# TARGET_OR_TEST_SYSTEM: SMARCA2 (Homo sapiens)
# Construct: endogenous in cells
# Sequence (P51531 whole entry): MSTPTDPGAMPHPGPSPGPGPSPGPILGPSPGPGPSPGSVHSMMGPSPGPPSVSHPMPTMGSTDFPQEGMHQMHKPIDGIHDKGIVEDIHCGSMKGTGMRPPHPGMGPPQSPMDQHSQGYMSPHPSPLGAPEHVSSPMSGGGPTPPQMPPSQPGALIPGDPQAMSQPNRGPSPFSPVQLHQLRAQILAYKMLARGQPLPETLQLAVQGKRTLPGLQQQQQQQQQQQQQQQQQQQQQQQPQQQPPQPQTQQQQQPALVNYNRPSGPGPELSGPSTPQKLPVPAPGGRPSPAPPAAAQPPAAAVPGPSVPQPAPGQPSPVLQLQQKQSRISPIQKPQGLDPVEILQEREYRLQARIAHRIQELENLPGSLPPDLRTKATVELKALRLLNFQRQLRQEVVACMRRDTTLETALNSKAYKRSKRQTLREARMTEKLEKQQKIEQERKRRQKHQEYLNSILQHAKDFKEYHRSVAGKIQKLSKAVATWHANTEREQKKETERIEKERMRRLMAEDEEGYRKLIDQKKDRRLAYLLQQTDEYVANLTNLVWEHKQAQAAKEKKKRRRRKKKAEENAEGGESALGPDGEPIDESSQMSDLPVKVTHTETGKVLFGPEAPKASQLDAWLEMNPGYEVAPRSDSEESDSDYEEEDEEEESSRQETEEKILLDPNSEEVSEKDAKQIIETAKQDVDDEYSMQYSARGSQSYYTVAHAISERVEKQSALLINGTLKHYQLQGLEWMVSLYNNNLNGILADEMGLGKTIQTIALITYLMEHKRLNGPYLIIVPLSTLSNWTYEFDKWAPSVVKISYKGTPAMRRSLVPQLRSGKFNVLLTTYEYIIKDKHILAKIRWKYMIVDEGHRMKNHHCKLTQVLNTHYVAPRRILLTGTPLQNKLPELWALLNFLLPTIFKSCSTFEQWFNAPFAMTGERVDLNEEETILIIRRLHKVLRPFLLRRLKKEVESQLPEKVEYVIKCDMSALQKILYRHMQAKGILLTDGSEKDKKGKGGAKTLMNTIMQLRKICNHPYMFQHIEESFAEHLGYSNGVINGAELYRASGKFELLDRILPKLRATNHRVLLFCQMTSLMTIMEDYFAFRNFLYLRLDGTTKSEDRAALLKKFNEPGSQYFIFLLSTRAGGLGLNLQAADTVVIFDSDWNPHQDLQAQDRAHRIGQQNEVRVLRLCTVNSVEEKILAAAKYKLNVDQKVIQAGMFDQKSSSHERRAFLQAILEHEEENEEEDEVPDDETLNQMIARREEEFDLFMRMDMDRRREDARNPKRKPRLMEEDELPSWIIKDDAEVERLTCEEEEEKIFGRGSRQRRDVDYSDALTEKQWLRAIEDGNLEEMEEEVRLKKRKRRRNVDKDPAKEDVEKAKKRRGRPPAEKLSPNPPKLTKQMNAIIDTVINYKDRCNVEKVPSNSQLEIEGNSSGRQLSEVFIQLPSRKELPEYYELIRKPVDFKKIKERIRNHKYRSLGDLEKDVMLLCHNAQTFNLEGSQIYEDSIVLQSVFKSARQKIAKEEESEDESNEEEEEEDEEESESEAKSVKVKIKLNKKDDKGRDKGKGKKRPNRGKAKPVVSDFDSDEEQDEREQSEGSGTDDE
# PROTOCOL_TEXT: SMARCA2 HiBiT degradation assay (cellular)
# Assay type: cell-based
# REPORTED_CONDITIONS: A549, Emax = amount of residual protein remaining in the cell following compound treatment
MEASUREMENT_TYPE: Emax (%)

Worked examples, 10 compounds total:
COMPOUND: Cc1ncsc1-c1ccc([C@H](C)NC(=O)[C@@H]2C[C@@H](O)CN2C(=O)[C@@H](NC(=O)CCCCCC(=O)N(C)CC(COc2cc(-c3ccccc3O)nnc2N)c2ccccc2)C(C)(C)C)cc1 (mixture of isomers)
MEASUREMENT_TYPE: Emax
VAL: 19
--
COMPOUND: Cc1ncsc1-c1ccc(CNC(=O)[C@@H]2C[C@@H](O)CN2C(=O)[C@@H](NC(=O)CCCCCCCCC(=O)NCC(COc2cc(-c3ccccc3O)nnc2N)c2ccccc2)C(C)(C)C)cc1 (mixture of isomers) [Example 51]
MEASUREMENT_TYPE: Emax
VAL: 48
--
COMPOUND: Cc1ncsc1-c1ccc(CNC(=O)[C@@H]2C[C@@H](O)CN2C(=O)[C@@H](NC(=O)CCCCCCCCC(=O)N2CCN(Cc3cccc(C#Cc4cc(-c5ccccc5O)nnc4N)c3)CC2)C(C)(C)C)cc1
MEASUREMENT_TYPE: Emax
VAL: 44
--
COMPOUND: Cc1ncsc1-c1ccc(CNC(=O)[C@@H]2C[C@@H](O)CN2C(=O)[C@@H](NC(=O)CCCCCCCCC(=O)N2CCC(CNC(=O)C3(c4ccccc4)CCN(c4cc(-c5ccccc5O)nnc4N)CC3)CC2)C(C)(C)C)cc1
MEASUREMENT_TYPE: Emax
VAL: 59
--
COMPOUND: Cc1ncsc1-c1ccc([C@@H](C)NC(=O)[C@H]2C[C@H](O)CN2C(=O)[C@H](NC(=O)CCOCCC(=O)N2CCN(c3ccc(N4CCCC(Oc5cc(-c6ccccc6O)nnc5N)C4)cc3)CC2)C(C)(C)C)cc1 (stereo in doubt)
MEASUREMENT_TYPE: Emax
VAL: 30
--
COMPOUND: Cc1ncsc1-c1ccc(CNC(=O)[C@@H]2C[C@@H](O)CN2C(=O)[C@@H](NC(=O)CCCCCCCCCCC(=O)N2CCN(Cc3cccc(C#Cc4cc(-c5ccccc5O)nnc4N)c3)CC2)C(C)(C)C)cc1
MEASUREMENT_TYPE: Emax
VAL: 35
--
COMPOUND: Cc1ncsc1-c1ccc([C@H](C)NC(=O)[C@@H]2C[C@@H](O)CN2C(=O)[C@@H](NC(=O)CCCCCCNC(=O)C(c2ccccc2)n2cc(-c3cc(-c4ccccc4O)nnc3N)cn2)C(C)(C)C)cc1 (mixture of isomers)
MEASUREMENT_TYPE: Emax
VAL: 26
--
COMPOUND: Cc1ncsc1-c1ccc(CNC(=O)[C@@H]2C[C@@H](O)CN2C(=O)[C@@H](NC(=O)CCCCCCCCC(=O)N2CC(Oc3cc(-c4ccccc4O)nnc3N)CC(c3ccccc3)C2)C(C)(C)C)cc1 (mixture of isomers)
MEASUREMENT_TYPE: Emax
VAL: 24
--
COMPOUND: Cc1ncsc1-c1ccc(CNC(=O)[C@@H]2C[C@@H](O)CN2C(=O)[C@@H](NC(=O)CCCCCCCC(=O)N2CCN(Cc3cccc(N4C5CCC4CN(c4cc(-c6ccccc6O)nnc4N)C5)c3)CC2)C(C)(C)C)cc1
MEASUREMENT_TYPE: Emax
VAL: 51
--
COMPOUND: Cc1ncsc1-c1ccc(CNC(=O)[C@@H]2C[C@@H](O)CN2C(=O)[C@@H](NC(=O)CCCCCCCCCC(=O)N2CCN(C(=O)c3cccc(CN4C5CCC4CN(c4cc(-c6ccccc6O)nnc4N)C5)c3)CC2)C(C)(C)C)cc1
MEASUREMENT_TYPE: Emax
VAL: 63

P: Cc1ncsc1-c1ccc([C@H](C)NC(=O)[C@@H]2C[C@@H](O)CN2C(=O)[C@@H](NC(=O)CCCCCCCCCCC(=O)N2CCN(CCOc3cccc(CCOc4cc(-c5ccccc5O)nnc4N)c3)CC2)C(C)(C)C)cc1
Q: Cc1ncsc1-c1ccc(CNC(=O)[C@@H]2C[C@@H](O)CN2C(=O)[C@@H](NC(=O)CCCCCCCCC(=O)NC2C3CCC2CN(c2cc(-c4ccccc4O)nnc2N)C3)C(C)(C)C)cc1 (some centres unmarked)
R: Cc1ncsc1-c1ccc([C@H](C)NC(=O)[C@@H]2C[C@@H](O)CN2C(=O)[C@@H](NC(=O)CCCCCCCCCCC(=O)N(C)CCCN(C)c2ccc(CCOc3cc(-c4ccccc4O)nnc3N)cc2)C(C)(C)C)cc1 (racemic)
List these items ordered by Emax, big to small. Response field: labels, in requested order.
Q, R, P
(Q: 56%, R: 33%, P: 23%)
